Test system: UACC-62 melanoma
protocol-description: NCI tumour cell line growth inhibition, 48 h; in the data active = GI50 below about 0.43 µM; inactive = the rest
Your answer must be one of the following: active, inactive

>>> print(df.to_string())
                                   compound      study_target  assigned_class
0  C=CC(=O)N1CC[C@@H](Oc2nc(Nc3ccc(N4CCC(N5CCN(C)CC5)CC4)cc3)c(C(N)=O)nc2CC)C1  UACC-62 melanoma        inactive
1  CN(C)CCCn1c2c(c3ccc([N+](=O)[O-])cc3c1=O)C(=O)c1ccccc1-2  UACC-62 melanoma        inactive
2  CCS(=O)(=O)Nc1ccc(Oc2ccc(F)cc2F)c(-c2cn(C)c(=O)c3[nH]ccc23)c1  UACC-62 melanoma          active
3  COC(=O)c1cc2c([nH]c3ccccc32)c(-c2nc3cc(N(S(=O)(=O)c4ccc(C)cc4)S(=O)(=O)c4ccc(C)cc4)c(OC)cc3cc2CO)n1  UACC-62 melanoma        inactive
4                      CCCCc1ccc(C(N)=O)nc1  UACC-62 melanoma        inactive

QUERY: Please let me know the test result on file for COC(=O)[C@@H](C)C[C@H](Cc1ccccc1)NC(=O)c1cccc([C@@H](C[C@H](C(C)C)N(C)C(=O)[C@@H](NC(=O)[C@H]2CCCCN2C)C(C)C)OC(C)=O)n1 .
RESULT: active

QUERY: // param item: COc1ccc(-c2nccn2-c2cc(OC)c(OC)c(OC)c2)cc1 ; yields the recorded call
RESULT: inactive

QUERY: Give the logged outcome of this assay for the following compound: COc1ccc(/C(C)=C(\c2ccc(Cl)cc2)c2ccc(OCCN3CCCCC3)cc2)cc1F
RESULT: inactive

QUERY: Returns: the outcome recorded for CCN(CC)CCC(CNc1c2ccc(Cl)cc2nc2ccc(OC)cc12)c1ccccc1 (centres undefined) in this assay.
RESULT: inactive
